Source of measurements: patent US5521197A

Biological target: 5-HT1F receptor (Homo sapiens, UniProt P30939)
Sequence (P30939 1-366): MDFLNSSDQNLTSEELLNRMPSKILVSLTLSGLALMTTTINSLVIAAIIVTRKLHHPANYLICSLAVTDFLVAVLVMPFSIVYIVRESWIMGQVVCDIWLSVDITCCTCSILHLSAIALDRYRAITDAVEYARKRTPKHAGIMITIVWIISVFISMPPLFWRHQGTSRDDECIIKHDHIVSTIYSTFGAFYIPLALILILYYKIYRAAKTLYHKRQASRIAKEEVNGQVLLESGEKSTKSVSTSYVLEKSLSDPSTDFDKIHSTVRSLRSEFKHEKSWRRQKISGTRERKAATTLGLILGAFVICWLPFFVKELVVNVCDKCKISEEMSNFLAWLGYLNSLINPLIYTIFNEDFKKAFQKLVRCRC
Test: Radioligand ([3H]5-HT) binding to the 5-HT1F receptor subtype
Parameters: expressed in transfected cells; host or cells: Ltk- cells (membranes)
pKi: −log10 of the molar value.
recordedMetric: pKi

- givenSmiles: "COc1ccc2[nH]cc(C3=CCN(CCc4ccccc4)CC3)c2c1"
  reportedResult: 7.47
- givenSmiles: "Clc1ccc2[nH]cc(C3=CCN(CCc4ccccc4)CC3)c2c1"
  reportedResult: 7.41
- givenSmiles: "C1=C(c2c[nH]c3ccccc23)CCN(CCc2ccccc2)C1"
  reportedResult: 7.09
- givenSmiles: "Fc1ccc2[nH]cc(C3=CCN(CCc4ccccc4)CC3)c2c1"
  reportedResult: 7.32
- givenSmiles: "Cc1ccc2[nH]cc(C3=CCN(CCc4ccccc4)CC3)c2c1"
  reportedResult: 7.55
- givenSmiles: "NC(=O)c1ccc2[nH]cc(C3=CCN(CCc4ccccc4)CC3)c2c1"
  reportedResult: 7.63
